Every entry's value here was drawn from the supplement of paper PMC9233669.

Documented self-aminoacylation across a set of sequences
System: biotinyl-Val-oxazolone
Test: self-aminoacylation, catalytic enhancement (BVO) (fold over background); higher = more active; k-Seq, kA / k0A0; sequences stand for … in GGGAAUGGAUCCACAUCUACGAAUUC…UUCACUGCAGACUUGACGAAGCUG
This sample holds only a part of the variants without activity.
readout: self-aminoacylation

- CUACUACAAACAAUCGGUCUU [Fam1A.1 aminoacylation ribozyme variant]: 0.675
- AAGUUUGCUAAUAGUGGGAAG [Fam3.1 aminoacylation ribozyme variant]: 1.03
- AAGUUUCCUAAUAGUCCCAAG [Fam3.1 aminoacylation ribozyme variant]: 1.73
- ACACACUUCAAGCAACCGGUC [Fam1B.1 aminoacylation ribozyme variant]: 1.54
- CCACACAUCAGGCAAUCGGUC [Fam1B.1 aminoacylation ribozyme variant]: 1.3
- CCACACUUCAAGCAAUCCGCC [Fam1B.1 aminoacylation ribozyme variant]: 1.64
- AUUACUCUGGUCAUCCAGUGA [Fam2.1 aminoacylation ribozyme variant]: 2.74
- AUUACCCUGAUCAUCGAAUGA [Fam2.1 aminoacylation ribozyme variant]: 0.871
